- Measured target: FGFR1 (UniProt P11362)
- Sequence (P11362 whole entry, looked up): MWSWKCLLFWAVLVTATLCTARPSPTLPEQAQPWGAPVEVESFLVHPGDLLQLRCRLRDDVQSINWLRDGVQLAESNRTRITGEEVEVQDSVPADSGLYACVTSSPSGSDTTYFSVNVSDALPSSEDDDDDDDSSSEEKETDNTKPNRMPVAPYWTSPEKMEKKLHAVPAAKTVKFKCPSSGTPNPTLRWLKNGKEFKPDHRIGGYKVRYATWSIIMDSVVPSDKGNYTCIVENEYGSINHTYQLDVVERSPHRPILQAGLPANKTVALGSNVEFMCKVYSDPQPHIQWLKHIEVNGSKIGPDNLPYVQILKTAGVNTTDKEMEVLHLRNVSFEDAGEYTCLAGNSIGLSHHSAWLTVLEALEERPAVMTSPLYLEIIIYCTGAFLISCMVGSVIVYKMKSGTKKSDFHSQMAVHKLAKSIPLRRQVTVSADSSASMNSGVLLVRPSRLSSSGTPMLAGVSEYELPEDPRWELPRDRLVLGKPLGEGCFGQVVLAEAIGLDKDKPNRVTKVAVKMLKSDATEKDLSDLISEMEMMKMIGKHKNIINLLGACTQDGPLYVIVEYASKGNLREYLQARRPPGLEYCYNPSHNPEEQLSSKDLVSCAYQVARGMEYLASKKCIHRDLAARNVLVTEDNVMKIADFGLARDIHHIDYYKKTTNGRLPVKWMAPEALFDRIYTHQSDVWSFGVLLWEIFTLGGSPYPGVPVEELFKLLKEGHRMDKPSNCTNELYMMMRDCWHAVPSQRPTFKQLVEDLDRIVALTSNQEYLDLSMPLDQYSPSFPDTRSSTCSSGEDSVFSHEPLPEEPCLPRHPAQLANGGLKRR
- Protocol text: phosphorylation enrichment, bacterial display (enrichment ratio); higher = better substrate or ligand; peptides without Tyr show the background;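 further: 11-residue human phosphosite peptides and single-mutation variants displayed on the E. coli surface, counted by deep sequencing, each peptide's frequency after selection divided by its frequency in the unselected input library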;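 further: frequency after pTyr selection over input frequency; kinase dosed for 20-30% of maximal phosphorylation in three min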
Could you label it 1 if measured phosphorylation enrichment is 0.5 or higher, and 0 otherwise?

LTGIAYGLPHW [SLC22A14_Y291_S292G] = 1
CPYNLYAAQLS [HGD_Y40_E42A] = 1

Request: Does NPIGLYSAETL [LDB3_Y202] have a reported phosphorylation enrichment of at least 0.5?
Response: 0

###

- Measured target: FGFR3 (UniProt P22607)
- Sequence (P22607 whole entry, looked up): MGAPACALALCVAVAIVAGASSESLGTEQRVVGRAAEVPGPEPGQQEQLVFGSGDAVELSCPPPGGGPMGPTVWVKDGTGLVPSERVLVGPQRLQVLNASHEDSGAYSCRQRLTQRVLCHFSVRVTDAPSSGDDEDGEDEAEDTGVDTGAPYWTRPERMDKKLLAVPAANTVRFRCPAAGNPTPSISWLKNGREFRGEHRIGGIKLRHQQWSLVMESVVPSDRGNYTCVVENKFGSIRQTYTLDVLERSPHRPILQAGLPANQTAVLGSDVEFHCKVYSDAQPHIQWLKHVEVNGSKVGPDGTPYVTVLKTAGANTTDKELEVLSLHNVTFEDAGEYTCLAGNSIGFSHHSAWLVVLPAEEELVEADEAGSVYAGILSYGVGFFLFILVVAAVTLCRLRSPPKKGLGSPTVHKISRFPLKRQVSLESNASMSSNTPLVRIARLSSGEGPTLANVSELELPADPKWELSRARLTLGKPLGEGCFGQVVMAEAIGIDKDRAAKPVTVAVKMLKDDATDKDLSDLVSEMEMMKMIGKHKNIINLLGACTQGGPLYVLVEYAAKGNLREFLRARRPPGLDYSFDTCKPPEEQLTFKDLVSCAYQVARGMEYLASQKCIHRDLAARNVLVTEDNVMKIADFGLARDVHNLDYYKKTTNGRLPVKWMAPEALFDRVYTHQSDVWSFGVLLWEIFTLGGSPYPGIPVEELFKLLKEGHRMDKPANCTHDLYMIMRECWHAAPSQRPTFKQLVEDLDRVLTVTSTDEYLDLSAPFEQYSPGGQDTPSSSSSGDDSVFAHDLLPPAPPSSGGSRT
- Protocol text: phosphorylation enrichment, bacterial display (enrichment ratio); higher = better substrate or ligand; peptides without Tyr show the background
Reported property: phosphorylation enrichment
API doc: respond with a numeric literal and nothing else, no unit.

Below are worked cases with known answers.
PTEAQYRFIYM [PTPN11_Y511_Q506P] = 2.82
HQNGTYGLHQD [SGSH_Y89_M88T] = 0.727
HHIDYYKKTTN [FGFR1_Y654] = 0.803
NLSVPYDSSLK [ABCC8_Y1353_R1352P] = 0.503
ISHVAYCVLGK [TRRAP_Y892_R893C] = 0.834

Request: Can you look up the measured phosphorylation enrichment of YSNVLYRPRGA [TMIGD2_Y197] for me?
Response: 0.614

Request: // query phosphorylation enrichment value for entry WVFNHYRWFIW [BRCA2_Y2624_I2627F_YF]
Response: 0.813

###

- Measured target: FGFR1 (UniProt P11362)
- Protocol text: phosphorylation enrichment, bacterial display (enrichment ratio); higher = better substrate or ligand; peptides without Tyr show the background
Readings of phosphorylation enrichment for the listed sequences

LGLDEYLDKLK [FMNL2_Y352] = 0.536
GTTIHYNYMCN [TP53_Y234_C229G] = 0.619
TIQDAYMHITS [ADCY10_Y318_A313T] = 0.624
SGGSSYGSGGG [KRT1_Y532] = 0.411
CLAKMYYSAVD [CP_Y539] = 0.812

Request: Requested read-out: phosphorylation enrichment. Entry: SSPMKYQQNVS [EGFEM1P_Y160]
Response: 0.334

Request: What value of measured phosphorylation enrichment is listed for VECHPYFTQPK [AKR1D1_Y199] ?
Response: 0.591

Request: Please report the recorded phosphorylation enrichment for PYTDPYYDYEI [ZC3H18_Y371_A368T] .
Response: 18.9

Request: Entry ADLAKYICENQ [ALB_Y287] : reported phosphorylation enrichment = ?
Response: 0.485

Request: Name the recorded phosphorylation enrichment for PVQAAYRKVVA [HBB_Y131_Q132R] .
Response: 0.367

Request: State the recorded phosphorylation enrichment for this entry: DRLASYLDKVP [KRT14_Y129_R134P]
Response: 0.456

Request: Could you tell me which phosphorylation enrichment is on file for EERNPYFSSAR [MCCC2_Y520_G517R_YF] ?
Response: 0.486

###

- Measured target: Jak2 (UniProt O60674)
- Sequence (O60674 whole entry, looked up): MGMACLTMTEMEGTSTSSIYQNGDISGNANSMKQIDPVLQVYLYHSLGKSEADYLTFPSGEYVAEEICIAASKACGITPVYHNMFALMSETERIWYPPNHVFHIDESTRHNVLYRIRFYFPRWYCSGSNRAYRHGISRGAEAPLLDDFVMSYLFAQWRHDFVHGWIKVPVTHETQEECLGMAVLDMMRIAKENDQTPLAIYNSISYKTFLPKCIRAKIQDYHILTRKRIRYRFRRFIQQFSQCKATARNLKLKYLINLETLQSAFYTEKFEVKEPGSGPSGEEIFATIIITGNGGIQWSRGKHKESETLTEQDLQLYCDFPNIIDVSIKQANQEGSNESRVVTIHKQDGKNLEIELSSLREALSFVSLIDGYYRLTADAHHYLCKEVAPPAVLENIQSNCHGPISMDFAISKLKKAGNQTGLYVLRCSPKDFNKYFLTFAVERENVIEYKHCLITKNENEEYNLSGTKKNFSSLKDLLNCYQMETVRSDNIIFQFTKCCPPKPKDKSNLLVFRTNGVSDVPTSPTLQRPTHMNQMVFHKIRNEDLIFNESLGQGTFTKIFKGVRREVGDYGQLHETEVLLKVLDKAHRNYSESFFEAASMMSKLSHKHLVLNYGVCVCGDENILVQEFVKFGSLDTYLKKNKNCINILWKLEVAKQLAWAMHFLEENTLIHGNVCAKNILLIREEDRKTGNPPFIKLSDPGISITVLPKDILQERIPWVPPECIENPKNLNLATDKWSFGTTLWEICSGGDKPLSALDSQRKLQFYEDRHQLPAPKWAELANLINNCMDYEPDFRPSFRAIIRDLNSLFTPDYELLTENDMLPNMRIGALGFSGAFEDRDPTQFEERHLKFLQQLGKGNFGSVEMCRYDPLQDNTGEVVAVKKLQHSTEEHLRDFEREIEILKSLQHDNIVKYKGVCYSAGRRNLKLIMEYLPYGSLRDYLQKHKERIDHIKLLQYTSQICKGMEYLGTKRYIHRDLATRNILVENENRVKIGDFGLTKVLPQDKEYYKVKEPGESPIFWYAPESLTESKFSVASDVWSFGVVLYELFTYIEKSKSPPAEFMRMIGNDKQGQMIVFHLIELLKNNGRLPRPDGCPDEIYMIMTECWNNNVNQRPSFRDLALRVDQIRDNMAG
- Protocol text: phosphorylation enrichment, bacterial display (enrichment ratio); higher = better substrate or ligand; peptides without Tyr show the background
Please mark Condition met if the recorded phosphorylation enrichment is equal to or greater than 0.9, and Condition not met if it falls below.

FPHVISARLWR [SMAD4_Y95_Y95S] = Condition not met
NLSVPYDSSLK [ABCC8_Y1353_R1352P] = Condition not met
FLEEEYVKAVG [TF_Y674_G671E_YF] = Condition met
YTFTSYYMHWV [IGHV1-46_Y51] = Condition met
TIQIMFGCDVG [HLA-A_Y123_Y123F] = Condition met

Request: # check: phosphorylation enrichment of SLAARYYNWVC [FLT4_Y1230_S1235C] is greater than or equal to 0.9
Response: Condition met
